Molecular target: PRMT5/MEP50 (Homo sapiens (Human))
Sequence (O14744 other isoform, or with tags, fused parts or gaps): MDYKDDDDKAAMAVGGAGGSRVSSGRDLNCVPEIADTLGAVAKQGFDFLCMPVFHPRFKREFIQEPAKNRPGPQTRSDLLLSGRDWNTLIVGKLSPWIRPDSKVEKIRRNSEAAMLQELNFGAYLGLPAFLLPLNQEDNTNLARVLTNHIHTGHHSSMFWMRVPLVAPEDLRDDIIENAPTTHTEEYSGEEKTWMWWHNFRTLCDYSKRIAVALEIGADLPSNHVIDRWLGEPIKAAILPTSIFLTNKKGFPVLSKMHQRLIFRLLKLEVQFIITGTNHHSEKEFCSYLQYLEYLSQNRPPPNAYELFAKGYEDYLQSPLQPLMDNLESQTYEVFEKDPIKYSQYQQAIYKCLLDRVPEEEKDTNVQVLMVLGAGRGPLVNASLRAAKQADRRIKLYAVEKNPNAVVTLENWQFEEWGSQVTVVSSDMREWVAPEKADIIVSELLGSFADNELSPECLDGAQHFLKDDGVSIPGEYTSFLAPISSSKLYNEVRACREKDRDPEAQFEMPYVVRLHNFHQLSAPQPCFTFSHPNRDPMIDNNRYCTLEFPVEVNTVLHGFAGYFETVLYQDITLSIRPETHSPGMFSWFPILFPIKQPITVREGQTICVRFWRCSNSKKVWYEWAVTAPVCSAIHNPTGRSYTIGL
Sequence (Q9BQA1 other isoform, or with tags, fused parts or gaps partner): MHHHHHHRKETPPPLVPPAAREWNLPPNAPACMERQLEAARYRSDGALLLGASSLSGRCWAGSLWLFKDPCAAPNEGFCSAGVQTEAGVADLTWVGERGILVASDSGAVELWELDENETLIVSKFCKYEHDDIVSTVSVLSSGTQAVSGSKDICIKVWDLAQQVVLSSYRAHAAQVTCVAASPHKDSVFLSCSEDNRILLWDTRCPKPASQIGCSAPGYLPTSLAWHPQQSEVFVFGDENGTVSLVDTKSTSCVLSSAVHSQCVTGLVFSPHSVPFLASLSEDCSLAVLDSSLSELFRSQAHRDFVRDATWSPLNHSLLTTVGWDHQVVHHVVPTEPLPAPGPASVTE
Test: PRMT5 Biochemical Assay (PRMT5/MEP50 enzyme assay on peptide substrate, 3H-SAM Flashplate)
Conditions: PRMT5 biochemical assay; read-out: Biochemical IC50
pIC50: −log10 of the molar value.
# Lookup of reported pIC50 keyed by entry

| compound | target_or_test_system | pIC50 |
| --- | --- | --- |
| CNC1CN(S(=O)(=O)c2ccccc2OCC(=O)NC[C@@H](O)CN2CCc3ccccc3C2)CC1O (stereo partly shown) [Compound 246] | PRMT5/MEP50 (Homo sapiens (Human)) | > 7.00 |
| O=C(COc1cncc(C(=O)N2CCOCC2)c1)NCC(O)CN1CCc2ccccc2C1 (stereo not shown) [Compound 161] | PRMT5/MEP50 (Homo sapiens (Human)) | 6.00 to 7.00 |
| C[C@H](Oc1cccc2cccnc12)C(=O)NC[C@H](O)CN1CCc2ccccc2C1 [Compound 76] | PRMT5/MEP50 (Homo sapiens (Human)) | > 7.00 |
| CC(=O)Nc1ncccc1OCC(=O)NCC(O)CN1CCc2ccccc2C1 (stereo not shown) [Compound 147] | PRMT5/MEP50 (Homo sapiens (Human)) | < 5.00 |
| C[C@@H](Oc1cccc2cccnc12)C(=O)NC[C@@H](O)CN1CCc2ccccc2C1 [Compound 74] | PRMT5/MEP50 (Homo sapiens (Human)) | > 7.00 |
| Cc1nn(C)c2cccc(OCC(=O)NCC(O)CN3CCc4ccccc4C3)c12 (stereo not shown) [Compound 158] | PRMT5/MEP50 (Homo sapiens (Human)) | > 7.00 |
| CN1C(=O)COc2cccc(OCC(=O)NCC(O)CN3CCc4ccccc4C3)c21 (stereo not shown) [Compound 80] | PRMT5/MEP50 (Homo sapiens (Human)) | > 7.00 |
| NC1CCN(S(=O)(=O)c2ccccc2OCC(=O)NC[C@@H](O)CN2CCc3ccccc3C2)C1 (stereo partly shown) [Compound 221] | PRMT5/MEP50 (Homo sapiens (Human)) | > 7.00 |
| CN(C)CCN(C)S(=O)(=O)c1ccccc1OCC(=O)NC[C@@H](O)CN1CCc2ccccc2C1 [Compound 191] | PRMT5/MEP50 (Homo sapiens (Human)) | > 7.00 |
| CN1CC[C@H](CN(C)S(=O)(=O)c2ccccc2OCC(=O)NC[C@@H](O)CN2CCc3ccccc3C2)C1 [Compound 274] | PRMT5/MEP50 (Homo sapiens (Human)) | > 7.00 |
| CS(=O)(=O)Nc1ncccc1OCC(=O)NCC(O)CN1CCc2ccccc2C1 (stereo not shown) [Compound 139] | PRMT5/MEP50 (Homo sapiens (Human)) | < 5.00 |
| C[C@@H](Oc1cccc2cccnc12)C(=O)NC[C@H](O)CN1CCc2ccccc2C1 [Compound 73] | PRMT5/MEP50 (Homo sapiens (Human)) | > 7.00 |
| CC1CNCCN1S(=O)(=O)c1ccccc1OCC(=O)NC[C@@H](O)CN1CCc2ccccc2C1 (stereo partly shown) [Compound 202] | PRMT5/MEP50 (Homo sapiens (Human)) | > 7.00 |
| O=C(NCC(O)CN1CCc2ccccc2C1)C(O)c1ccccc1 (stereo not shown) [Compound 165] | PRMT5/MEP50 (Homo sapiens (Human)) | 6.00 to 7.00 |
| O=C(COc1cccc2cccnc12)NC[C@@H](O)CN1CCc2ccccc2C1 [Compound 45] | PRMT5/MEP50 (Homo sapiens (Human)) | > 7.00 |
| CN1CCC(n2ncc3cc(OCC(=O)NCC(O)CN4CCc5ccccc5C4)ccc32)C1 (stereo not shown) [Compound 96] | PRMT5/MEP50 (Homo sapiens (Human)) | > 7.00 |
| Cn1ncc2c(OCC(=O)NCC(O)CN3CCc4ccccc4C3)cccc21 (stereo not shown) [Compound 82] | PRMT5/MEP50 (Homo sapiens (Human)) | > 7.00 |
| O=C(COc1cccc(CN2CCOCC2)c1)NCC(O)CN1CCc2ccccc2C1 (stereo not shown) [Compound 75] | PRMT5/MEP50 (Homo sapiens (Human)) | > 7.00 |
| CN(C)c1cccnc1OCC(=O)NCC(O)CN1CCc2ccccc2C1 (stereo not shown) [Compound 133] | PRMT5/MEP50 (Homo sapiens (Human)) | < 5.00 |
| O=C(COc1cccc(C(=O)NCCc2c[nH]cn2)c1)NC[C@@H](O)CN1CCc2ccccc2C1 [Compound 189] | PRMT5/MEP50 (Homo sapiens (Human)) | 6.00 to 7.00 |
| CN1CCc2c(cccc2OCC(=O)NCC(O)CN2CCc3ccccc3C2)C1 (stereo not shown) [Compound 99] | PRMT5/MEP50 (Homo sapiens (Human)) | > 7.00 |
| CC1CN(S(=O)(=O)c2ccccc2OCC(=O)NC[C@@H](O)CN2CCc3ccccc3C2)CCN1 (stereo partly shown) [Compound 210] | PRMT5/MEP50 (Homo sapiens (Human)) | 6.00 to 7.00 |
| Cn1ncc2ccc(OCC(=O)NC[C@H](O)CN3CCc4ccccc4C3)cc21 [Compound 159] | PRMT5/MEP50 (Homo sapiens (Human)) | > 7.00 |
| COc1ccc2cccc(OCC(=O)NC[C@@H](O)CN3CCc4ccccc4C3)c2n1 [Compound 98] | PRMT5/MEP50 (Homo sapiens (Human)) | > 7.00 |
| O=C(COc1ccccc1-c1cc[nH]n1)NC[C@H](O)CN1CCc2ccccc2C1 [Compound 68] | PRMT5/MEP50 (Homo sapiens (Human)) | > 7.00 |
| O=C(CCc1nc2ccccc2[nH]1)NC[C@@H](O)CN1CCc2ccccc2C1 [Compound 192] | PRMT5/MEP50 (Homo sapiens (Human)) | 6.00 to 7.00 |
| CC(=O)Nc1cncc(OCC(=O)NCC(O)CN2CCc3ccccc3C2)c1 (stereo not shown) [Compound 148] | PRMT5/MEP50 (Homo sapiens (Human)) | < 5.00 |
| O=C(COc1ccccc1S(=O)(=O)N1CCNC(CO)C1)NC[C@@H](O)CN1CCc2ccccc2C1 (stereo partly shown) [Compound 217] | PRMT5/MEP50 (Homo sapiens (Human)) | 6.00 to 7.00 |
| CC(Oc1ccccc1)C(=O)NCC(O)CN1CCc2ccccc2C1 (stereo not shown) [Compound 19] | PRMT5/MEP50 (Homo sapiens (Human)) | > 7.00 |
| CN1CCCCC1c1ccccc1OCC(=O)NCC(O)CN1CCc2ccccc2C1 (stereo not shown) [Compound 258] | PRMT5/MEP50 (Homo sapiens (Human)) | 6.00 to 7.00 |
| O=C(COc1cncc(CN2CCOCC2)c1)NCC(O)CN1CCc2ccccc2C1 (stereo not shown) [Compound 172] | PRMT5/MEP50 (Homo sapiens (Human)) | 6.00 to 7.00 |
| O=C(COc1ccccc1N1CCOCC1)NC[C@H](O)CN1CCc2ccccc2C1 [Compound 77] | PRMT5/MEP50 (Homo sapiens (Human)) | > 7.00 |
| O=C(COc1nc2ccccc2[nH]1)NC[C@@H](O)CN1CCc2ccccc2C1 [Compound 212] | PRMT5/MEP50 (Homo sapiens (Human)) | 5.00 to 6.00 |
| Cc1ccc2[nH]c(CCC(=O)NC[C@H](O)CN3CCc4ccccc4C3)nc2c1 [Compound 224] | PRMT5/MEP50 (Homo sapiens (Human)) | > 7.00 |

###

Reported IC50 values for the following compounds.
Biological target: PRMT5/MEP50 (Homo sapiens (Human))
Assay: PRMT5 Biochemical Assay (PRMT5/MEP50 enzyme assay on peptide substrate, 3H-SAM Flashplate)
Conditions: PRMT5 biochemical assay; read-out: Biochemical IC50

| compound | IC50 |
| --- | --- |
| CN1CCN(c2cccc(OCC(=O)NC[C@@H](O)CN3CCc4ccccc4C3)c2)CC1 | < 100 nM |
| O=C(COc1cccc(N2CCNCC2)c1)NC[C@@H](O)CN1CCc2ccccc2C1 | < 100 nM |
| O=C(COc1ccccc1S(=O)(=O)N1CCC(O)C1)NCC(O)CN1CCc2ccccc2C1 (centres unmarked) | < 100 nM |
| O=C(COc1cccc2cccnc12)NCC(O)CN1CCc2ccccc2C1 (centres unmarked) | < 100 nM |
| CN(C[C@@H](O)CN1CCc2ccccc2C1)C(=O)CCc1nc2ccccc2[nH]1 | 101 to 1000 nM |
| CN1CCN(S(=O)(=O)c2ccccc2OCC(=O)NCC(O)CN2CCc3ccccc3C2)CC1 (centres unmarked) | < 100 nM |
| O=C(COc1cccc2c1CNCC2)NCC(O)CN1CCc2ccccc2C1 (centres unmarked) | < 100 nM |
| CC(C)(Oc1cccc2cccnc12)C(=O)NCC(O)CN1CCc2ccccc2C1 (centres unmarked) | < 100 nM |
| Cc1cccc2[nH]c(CCC(=O)NC[C@H](O)CN3CCc4ccccc4C3)nc12 | < 100 nM |
| CN(C)CCOc1ccccc1OCC(=O)NC[C@H](O)CN1CCc2ccccc2C1 | < 100 nM |
| O=C(COc1cccc(C(=O)NCCNCCO)c1)NC[C@@H](O)CN1CCc2ccccc2C1 | 101 to 1000 nM |
| O=C(COc1cccc(-c2ncc[nH]2)c1)NC[C@@H](O)CN1CCc2ccccc2C1 | 1000 to 10000 nM |
| CC(Oc1ccccc1NS(C)(=O)=O)C(=O)NCC(O)CN1CCc2ccccc2C1 (centres unmarked) | 1000 to 10000 nM |
| O=C(COc1cccc2ccc(N3CCOCC3)nc12)NCC(O)CN1CCc2ccccc2C1 (centres unmarked) | < 100 nM |
